Biological target: KDR (baculovirus expressed human KDR kinase domain D807-V1356) (Homo sapiens, UniProt P35968);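 note: Luciferase-coupled chemiluminescent kinase assay, activity read as percent ATP left after 4 h reaction at ambient temperature, ATP near KM, 10-point dose-response in 384-well plates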
Construct: human KDR kinase domain D807-V1356; host or cells: baculovirus expression
Sequence (P35968 807-1356): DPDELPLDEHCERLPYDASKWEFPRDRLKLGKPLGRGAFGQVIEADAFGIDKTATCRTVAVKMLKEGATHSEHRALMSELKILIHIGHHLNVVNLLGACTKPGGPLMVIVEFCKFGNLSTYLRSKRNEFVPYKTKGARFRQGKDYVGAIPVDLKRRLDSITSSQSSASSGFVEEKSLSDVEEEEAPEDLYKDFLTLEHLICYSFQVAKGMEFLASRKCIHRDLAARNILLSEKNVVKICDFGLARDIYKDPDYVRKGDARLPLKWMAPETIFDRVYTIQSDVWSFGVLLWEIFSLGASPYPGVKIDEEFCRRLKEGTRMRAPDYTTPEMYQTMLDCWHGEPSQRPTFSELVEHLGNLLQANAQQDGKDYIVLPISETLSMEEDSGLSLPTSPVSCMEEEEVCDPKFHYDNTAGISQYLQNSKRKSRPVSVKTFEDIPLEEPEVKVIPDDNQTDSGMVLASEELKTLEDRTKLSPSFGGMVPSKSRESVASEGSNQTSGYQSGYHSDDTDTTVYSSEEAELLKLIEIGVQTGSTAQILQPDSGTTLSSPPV
Assay: biochemical
Exercise: state measured IC50 for each of the compounds provided.

These solved cases illustrate the format of a correct answer.
> print(dat)
                                   compound   valuemeasured
1  CCN(CC)CCOc1cc2nccc(Oc3ccc(NC(=O)C4(C(=O)Nc5ccc(F)cc5)CC4(C)C)cc3F)c2cc1OC (stereo not shown) [Example 375]         < 50 nM
2  COc1cc2c(Oc3ccc(NC(=O)C4(C(=O)Nc5ccc(F)cc5)CC4)cc3F)ccnc2cc1OCCCN1CCN(C)CC1 [Example 333]         < 50 nM
3  COc1cc2c(Oc3ccc(NC(=O)[C@]4(C(=O)Nc5ccc(F)cc5)C[C@H]4C)cc3F)ncnc2cc1OCCCN1CCNCC1 [Example 390]         < 50 nM
4  COc1cc2nccc(Oc3ccc(N4CCN(Cc5ccccc5)CC4)cc3)c2cc1OC [Example 115]  500 to 5000 nM
5  COc1cc2c(Oc3ccc(NC(=O)C4(C(=O)Nc5ccc(F)cc5)CC4)cc3F)ccnc2cc1OCCCN1CCN(C(C)C)CC1 [Example 357]         < 50 nM
6  CCN(CC)CCOc1cc2ncnc(Oc3ccc(NC(=O)C4(C(=O)Nc5ccc(F)cc5)CCC4)cc3F)c2cc1OC [Example 363]         < 50 nM
7  COc1cc2nccc(Oc3ccc(NC(=O)C4(C(=O)Nc5ccccc5CN5CCOCC5)CC4)cc3)c2cc1OC [Example 397]  500 to 5000 nM
8  COc1cc2nccc(Oc3ncc(NC(=O)C4(C(=O)NCc5ccccc5)CC4)cc3Cl)c2cc1OC [Example 301]  500 to 5000 nM

Required: IC50, one value per compound below.
1. CCN(CC)CCCOc1cc2nccc(Oc3ccc(NC(=O)[C@]4(C(=O)Nc5ccc(F)cc5)C[C@H]4C)cc3F)c2cc1OC [Example 359]
2. CCN(CC)CCOc1cc2nccc(Oc3ccc(NC(=O)C4(C(=O)Nc5ccc(F)cc5)CCC4)cc3F)c2cc1OC [Example 307]
3. COc1cc2nccc(Oc3cc(F)c(NC(=O)C4(C(=O)Nc5ccc(F)cc5)CC4)cc3F)c2cc1OC [Example 324]
4. COc1cc2nccc(Oc3ccc(NC(=O)C4(C(=O)Nc5ccc(F)cc5)CN(Cc5ccccc5)C4)cc3)c2cc1OC [Example 352]
5. COc1cc2nccc(Oc3ccc(NC(=O)C(C)N(C)Cc4ccccc4)cc3)c2cc1OC (stereo not shown) [Example 118]

1. < 50 nM
2. < 50 nM
3. < 50 nM
4. 500 to 5000 nM
5. 500 to 5000 nM

Give IC50 for each listed item.
1. CCN(CC)CCOc1cc2nccc(Oc3ccc(NC(=O)[C@]4(C(=O)Nc5ccc(F)cc5)C[C@H]4C)cc3F)c2cc1OC [Example 360]
2. CNc1cc(Oc2ccc(NC(=O)C3(C(=O)Nc4ccc(F)cc4)CC3)cc2F)c2cc(OC)c(OC)cc2n1 [Example 341]
3. COc1cc2nccc(Oc3c(F)cc(NC(=O)C4(C(=O)Nc5ccc(F)cc5)CC4)cc3F)c2cc1OC [Example 323]
4. COc1cc2c(Oc3cc(C)c(NC(=O)C4(C(=O)Nc5ccc(F)cc5)CC4)cc3F)ccnc2cc1OCCCN1CCOCC1 [Example 326]
5. COc1cc2c(Oc3ncc(NC(=O)C4(C(=O)Nc5ccc(F)cc5)CC4)cc3Cl)ccnc2cc1OCC1CCNCC1 [Example 282]
6. COc1cc2nccc(Oc3ccc(NC(=O)C4(C(=O)Nc5ccc(F)cc5)CC4)c(C)n3)c2cc1OC [Example 306]

< 50 nM
500 to 5000 nM
< 50 nM
< 50 nM
< 50 nM
50 to 500 nM

Hi team, please reply with IC50 for each item in this list.
1. COc1cc2nccc(Oc3ccc(NC(=O)[C@H](CC(C)C)NCc4ccccc4)cc3)c2cc1OC [Example 119]
2. COc1cc2nccc(Oc3ccc(NC(=O)CC(=O)Nc4ccc(F)cc4)cc3)c2cc1OC [Example 288]

1. 500 to 5000 nM
2. < 50 nM

Go through the list and state IC50 for each entry.
1. COc1cc2nccc(Oc3ccc(NC(=O)/C(C)=N/OCc4ccccc4)cc3)c2cc1OC [Example 110]
2. COc1cc2nccc(Oc3cc(Cl)c(NC(=O)C4(C(=O)Nc5ccc(F)cc5)CC4)cc3C)c2cc1OC [Example 329]
3. CCN(CC)CCCOc1cc2ncnc(Oc3ccc(NC(=O)C4(C(=O)Nc5ccc(F)cc5)CC4(C)C)cc3F)c2cc1OC (stereo not shown) [Example 379]
4. COc1cc2c(Oc3ccc(NC(=O)C(=O)N4CCC(Cc5ccccc5)CC4)cc3F)ccnc2cc1OCC1CCNCC1 [Example 287]
5. COc1cc2c(Oc3ccc(NC(=O)[C@]4(C(=O)Nc5ccc(F)cc5)C[C@@H]4C)cc3F)ccnc2cc1OCCCN1CCNCC1 [Example 364]
6. COc1cc2c(Oc3ccc(NC(=O)C4(C(=O)Nc5ccc(F)cc5)CC4(C)C)cc3F)ncnc2cc1OCCCN1CCOCC1 (stereo not shown) [Example 373]

50 to 500 nM
50 to 500 nM
< 50 nM
< 50 nM
< 50 nM
< 50 nM

For the compound COc1cc2nccc(Oc3ccc(NC(=O)C(CC(C)C)N(C)Cc4ccccc4)cc3)c2cc1OC (stereo not shown) [Example 120] , what IC50 is on record?
500 to 5000 nM

* * *

Target: c-Met (baculovirus expressed human c-Met kinase domain P948-S1343) (Homo sapiens)
Construct: human c-Met kinase domain P948-S1343; host or cells: baculovirus expression
Sequence (P08581 1011-1343 limits assumed): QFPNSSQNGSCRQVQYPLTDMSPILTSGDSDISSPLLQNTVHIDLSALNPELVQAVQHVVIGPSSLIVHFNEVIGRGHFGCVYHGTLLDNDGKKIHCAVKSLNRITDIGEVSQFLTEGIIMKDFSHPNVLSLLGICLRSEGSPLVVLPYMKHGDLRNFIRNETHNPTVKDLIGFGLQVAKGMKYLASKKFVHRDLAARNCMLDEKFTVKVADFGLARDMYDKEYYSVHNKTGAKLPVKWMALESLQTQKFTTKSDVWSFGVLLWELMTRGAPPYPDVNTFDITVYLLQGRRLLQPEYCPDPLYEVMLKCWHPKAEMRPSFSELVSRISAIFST
Experiment: c-Met Luciferase-Coupled Chemiluminescent Kinase assay (LCCA)
Type: biochemical
quantityName: IC50

> print(dat)
                                   compound                        experimentaltarget  valuemeasured
1  COc1cc2nccc(Oc3ccc(NC(=O)C(C)N(C)Cc4ccccc4)cc3)c2cc1OC (stereo not shown) [Example 118]  c-Met (baculovirus expressed human c-Met kinase domain P948-S1343) (Homo sapiens)    0.5 to 5 µM
2  COc1cc2c(Oc3ccc(NC(=O)C(=O)N[C@@H](Cc4ccccc4)C(=O)N4CCCC4)cc3F)ccnc2cc1OCC1CCNCC1 [Example 284]  c-Met (baculovirus expressed human c-Met kinase domain P948-S1343) (Homo sapiens)      < 0.05 µM
3  COc1cc2ncnc(Oc3ccc(NC(=O)C4(C(=O)Nc5ccc(F)cc5)CC4)cc3)c2cc1OC [Example 310]  c-Met (baculovirus expressed human c-Met kinase domain P948-S1343) (Homo sapiens)      < 0.05 µM

List the reported IC50 of each compound below.
1. COc1cc2nccc(Oc3ccc(NC(=O)C4(C(=O)Nc5cccc(CN)c5)CC4)cc3)c2cc1OC [Example 399]
2. CCN(CC)CCOc1cc2nccc(Oc3ccc(NC(=O)C4(C(=O)Nc5ccc(F)cc5)CCC4)cc3F)c2cc1OC [Example 307]
3. COc1cc2c(Oc3ccc(NC(=O)C4(C(=O)Nc5ccc(F)cc5)CCC4)cc3F)ccnc2cc1OCCCN1CCCCC1 [Example 314]
4. COc1cc2c(Oc3ccc(NC(=O)C4(C(=O)Nc5ccc(F)cc5)CCC4)cc3F)ncnc2cc1OCCCN1CCOCC1 [Example 369]
5. COc1cc2nccc(Oc3ncc(NC(=O)CC(=O)Nc4ccccc4)cc3Cl)c2cc1OC [Example 291]
6. CCN(CC)CCOc1cc2ncnc(Oc3ccc(NC(=O)C4(C(=O)Nc5ccc(F)cc5)CCC4)cc3F)c2cc1OC [Example 363]
7. COc1cc2c(Oc3ccc(NC(=O)C4(C(=O)Nc5ccc(F)cc5)CC4(C)C)cc3F)ccnc2cc1OCCCN1CCOCC1 (stereo not shown) [Example 377]
8. COc1cc2c(Oc3ccc(NC(=O)C(=O)NC(C)C)cc3F)ccnc2cc1OCC1CCNCC1 [Example 294]

0.05 to 0.5 µM
< 0.05 µM
< 0.05 µM
0.05 to 0.5 µM
< 0.05 µM
< 0.05 µM
< 0.05 µM
< 0.05 µM

* * *

Biological target: c-Met (baculovirus expressed human c-Met kinase domain P948-S1343) (Homo sapiens)
Construct: human c-Met kinase domain P948-S1343; host or cells: baculovirus expression
Experiment: c-Met Luciferase-Coupled Chemiluminescent Kinase assay (LCCA);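 note: kinase activity read as percent ATP left after reaction, by luciferase-luciferin chemiluminescence, with 1 µM ATP and 1 µM poly-EY substrate, 2 h at ambient temperature, 10-point dose-response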
Type: biochemical
I'd appreciate it if you could supply IC50 values for the items below.

Solved entries (count: 5):
> print(dat)
                                   compound  quantityname   valuemeasured
1  COc1cc2nccc(Oc3ccc(NC(=O)C4(C(=O)Nc5ccc(F)cc5)CC4)cc3F)c2cc1O          IC50         < 50 nM
2  COc1cc2nccc(Oc3ccc(N4CC(Cc5ccccc5)N(S(=O)(=O)c5ccc(C)cc5)C4=O)cc3)c2cc1OC (stereo not shown)          IC50    50 to 500 nM
3  COc1cc2nccc(Oc3ccc(N4CCN(Cc5ccccc5)CC4)cc3)c2cc1OC          IC50  500 to 5000 nM
4  COc1cc2nc(N)cc(Oc3ccc(NC(=O)C4(C(=O)Nc5ccc(F)cc5)CC4)cc3F)c2cc1OC          IC50  500 to 5000 nM
5  CCN(CC)CCOc1cc2c(Oc3ccc(NC(=O)C4(C(=O)Nc5ccc(F)cc5)CC4)cc3F)ccnc2cc1OC          IC50         < 50 nM

For every listed record, write down its IC50.
1. COc1cc2nccc(Oc3ccc(NC(=O)C(C)NCc4ccccc4)cc3)c2cc1OC (stereo not shown)
2. COc1cc2nc(C)nc(Oc3ccc(NC(=O)C4(C(=O)Nc5ccc(F)cc5)CC4)cc3)c2cc1OC
3. COc1cc2c(Oc3ccc(NC(=O)[C@]4(C(=O)Nc5ccc(F)cc5)C[C@H]4C)cc3F)ccnc2cc1OCCCN1CCNCC1
4. COc1cc2c(Oc3cc(C)c(NC(=O)C4(C(=O)Nc5ccc(F)cc5)CC4)cc3F)ccnc2cc1OCCCN1CCOCC1
5. COc1cc2c(Oc3ccc(NC(=O)C4(C(=O)Nc5ccc(F)cc5)CC4)cc3F)ccnc2cc1OCCCN1CCN(C(C)=O)CC1
6. COc1cc2ncnc(Oc3ccc(NC(=O)C4(C(=O)Nc5ccc(F)cc5)CC4)cc3F)c2cc1OCC1CCN(C)CC1
7. CCN(CC)CCCOc1cc2ncnc(Oc3ccc(NC(=O)C4(C(=O)Nc5ccc(F)cc5)CC4)cc3F)c2cc1OC

1: 500 to 5000 nM; 2: 500 to 5000 nM; 3: < 50 nM; 4: < 50 nM; 5: < 50 nM; 6: < 50 nM; 7: < 50 nM
